# Tested on: A2780
# test.details: Inhibition of cell growth, A2780 wild type ovarian carcinoma cell line
# reported.conditions: read-out: Inhibition of cell growth A2780 nM (IC50)
readout.label: IC50

Form entry - test system: A2780; read-out: IC50; molecule: O=C1c2ccccc2C(=O)c2c(NCCN3CCCC3CO)cccc21 (stereo not shown) [HAQ163] > 1 µM

----------
# Tested on: A2780
# test.details: Inhibition of cell growth, A2780 wild type ovarian carcinoma cell line
# reported.conditions: read-out: IC50 of di-N-oxides (order of cytotoxicity); text b286
readout.label: IC50

Entry C[N+](C)([O-])CCNc1ccc(NCC[N+]2([O-])CCCC2CO)c2c1C(=O)c1c(O)ccc(O)c1C2=O (stereo not shown) [HAQ132N] : reported IC50 = ? > 100 µM

----------
# System: A2780
# test.details: Inhibition of cell growth, A2780 wild type ovarian carcinoma cell line
# reported.conditions: read-out: Inhibition of cell growth A2780 nM (IC50); A2780 wild type, Table 2
pIC50: −log10 of the molar value.
readout.label: pIC50

Data request, read-out pIC50, for CN(C)CCNc1ccc(NCCN2CCCCC2)c2c1C(=O)c1c(O)ccc(O)c1C2=O [HAQ148, reference compound] < 6.00

----------
# Test system: 2780AD
# test.details: Inhibition of cell growth, adriamycin (doxorubicin) resistant 2780AD cell line
# Assay type: cell-based, human
# reported.conditions: Homo sapiens, 2780AD, read-out: Inhibition of cell growth 2780AD nM (IC50)
readout.label: IC50

[
  {
    "molecule": "O=C1c2c(O)ccc(O)c2C(=O)c2c(NCCN3CCCCC3CCl)ccc(NCCN3CCCCC3CCl)c21 (stereo not shown) [CAQ190M]",
    "IC50": "> 1000 nM"
  },
  {
    "molecule": "O=C1c2ccccc2C(=O)c2c(NCCN3CCCC3CCl)cccc21 (stereo not shown) [CAQ191M]",
    "IC50": "> 1000 nM"
  },
  {
    "molecule": "O=C1c2c(O)ccc(O)c2C(=O)c2c(NCCN3CCCC3CCl)ccc(NCCN3CCCC3CCl)c21 (stereo not shown) [CAQ177M]",
    "IC50": "782 nM"
  }
]

Now examine the next entry.
Identify the measured IC50 of O=C1c2c(O)ccc(O)c2C(=O)c2c(NCCN3CCCC(CCl)C3)ccc(NCCN3CCCC(CCl)C3)c21 (stereo not shown) [CAQ74] for 2780AD. > 1000 nM

----------
The compounds listed here are annotated with their melting point.

[
  {
    "compound": "O=C1c2c(O)ccc(O)c2C(=O)c2c(NCCN3CCC(O)CC3)ccc(NCCN3CCC(O)CC3)c21",
    "observed": "241 to 244 °C"
  },
  {
    "compound": "O=C1c2c(O)ccc(O)c2C(=O)c2c(NCCN3CCCCC3CO)ccc(NCCN3CCCCC3CO)c21 (stereo not drawn)",
    "observed": "208 to 210 °C"
  },
  {
    "compound": "O=C1c2ccccc2C(=O)c2c(NCCN3CCCC3CCl)cccc21 (stereo not drawn) [CAQ191M]",
    "observed": "250 to 253 °C"
  },
  {
    "compound": "O=C1c2ccccc2C(=O)c2c(NCCN3CCCC(CO)C3)ccc(NCCN3CCCC(CO)C3)c21 (stereo not drawn)",
    "observed": "112 to 114 °C"
  },
  {
    "compound": "O=C1c2c(O)ccc(O)c2C(=O)c2c(NCCN3CCCC3CO)ccc(NCCN3CCCC3CO)c21 (stereo not drawn)",
    "observed": "202 to 204 °C"
  },
  {
    "compound": "O=C1c2c(O)ccc(O)c2C(=O)c2c(NCCN3CCCC(CO)C3)ccc(NCCN3CCCC(CO)C3)c21 (stereo not drawn)",
    "observed": "180 to 183 °C"
  },
  {
    "compound": "O=C1c2c(O)ccc(O)c2C(=O)c2c(NCCN3CCC(O)C3)ccc(NCCN3CCC(O)C3)c21 (stereo not drawn)",
    "observed": "197 to 199 °C"
  },
  {
    "compound": "O=C1c2c(O)ccc(O)c2C(=O)c2c(NCCN3CCCCC3)ccc(NCCN3CCCCC3)c21",
    "observed": "219 to 221 °C"
  }
]

We next turn to a different compound, shown below.
Consider the compound O=C1c2ccccc2C(=O)c2c(NCCN3CCCC3CO)cccc21 (stereo not drawn) and give its measured melting point. 113 to 115 °C
